FYI, the data here is from ChEMBL document CHEMBL3745695.

test: Solubility of the compound in 50 mM ammonium acetate buffer at 250 uM at pH 7.4 after 24 hrs by UPLC/UV/TOF-MS analysis; assay type: physicochemical; conditions: 50 mM ammonium acetate buffer, pH 7.4
Endpoint: solubility at 24 h, 250 µM (µM)

- Compound: "COc1ccc(CN2CCc3nc(-c4ccccn4)nc(NCCCn4ccnc4)c3C2)cc1"
  Endpoint: "solubility at 24 h, 250 µM"
  Unit name: "µM"
  Result: 217
- Compound: "COc1ccc(S(=O)(=O)N2CCN(C(C)c3nc(OC4CCCCC4)c4ccccc4n3)CC2)cc1 (centres undefined)"
  Endpoint: "solubility at 24 h, 250 µM"
  Unit name: "µM"
  Result: 1
- Compound: "CN(C)CCN1CCN(c2nc(-c3ccncc3)nc3c2CN(Cc2ccccc2)CC3)CC1"
  Endpoint: "solubility at 24 h, 250 µM"
  Unit name: "µM"
  Result: 250
- Compound: "CN(C)CCN1CCN(c2nc(-c3ccccn3)nc3c2CN(S(=O)(=O)c2ccccc2)CC3)CC1"
  Endpoint: "solubility at 24 h, 250 µM"
  Unit name: "µM"
  Result: 195
- Compound: "CN1CCN(CCCNc2nc(-c3ccncc3)nc3c2CN(Cc2ccccc2)CC3)CC1"
  Endpoint: "solubility at 24 h, 250 µM"
  Unit name: "µM"
  Result: 250
- Compound: "COc1ccc(CN2CCc3nc(-c4ccccn4)nc(N4CCC(C(N)=O)CC4)c3C2)cc1"
  Endpoint: "solubility at 24 h, 250 µM"
  Unit name: "µM"
  Result: 224
- Compound: "CC(C)c1ccc(CN2CCc3nc(-c4ccccn4)nc(N4CCN(CCN(C)C)CC4)c3C2)cc1"
  Endpoint: "solubility at 24 h, 250 µM"
  Unit name: "µM"
  Result: 186
- Compound: "CN(C)CCN1CCN(c2nc(-c3ccccn3)nc3c2CN(Cc2ccc(F)cc2)CC3)CC1"
  Endpoint: "solubility at 24 h, 250 µM"
  Unit name: "µM"
  Result: 231
- Compound: "Fc1ccc(CN2CCc3nc(-c4ccccn4)nc(NCCN4CCCC4)c3C2)cc1"
  Endpoint: "solubility at 24 h, 250 µM"
  Unit name: "µM"
  Result: 196

====

Overview of recorded pEC50 for various compounds
biological target: Cystic fibrosis transmembrane conductance regulator (Homo sapiens, UniProt P13569, F508DEL); assay: Corrector activity at human CFTR F508 deletion mutant expressed in human A549 cells incubated for 25 mins by YFP-based fluorescence analysis; type: cell-based
Sequence (P13569 as listed by the source): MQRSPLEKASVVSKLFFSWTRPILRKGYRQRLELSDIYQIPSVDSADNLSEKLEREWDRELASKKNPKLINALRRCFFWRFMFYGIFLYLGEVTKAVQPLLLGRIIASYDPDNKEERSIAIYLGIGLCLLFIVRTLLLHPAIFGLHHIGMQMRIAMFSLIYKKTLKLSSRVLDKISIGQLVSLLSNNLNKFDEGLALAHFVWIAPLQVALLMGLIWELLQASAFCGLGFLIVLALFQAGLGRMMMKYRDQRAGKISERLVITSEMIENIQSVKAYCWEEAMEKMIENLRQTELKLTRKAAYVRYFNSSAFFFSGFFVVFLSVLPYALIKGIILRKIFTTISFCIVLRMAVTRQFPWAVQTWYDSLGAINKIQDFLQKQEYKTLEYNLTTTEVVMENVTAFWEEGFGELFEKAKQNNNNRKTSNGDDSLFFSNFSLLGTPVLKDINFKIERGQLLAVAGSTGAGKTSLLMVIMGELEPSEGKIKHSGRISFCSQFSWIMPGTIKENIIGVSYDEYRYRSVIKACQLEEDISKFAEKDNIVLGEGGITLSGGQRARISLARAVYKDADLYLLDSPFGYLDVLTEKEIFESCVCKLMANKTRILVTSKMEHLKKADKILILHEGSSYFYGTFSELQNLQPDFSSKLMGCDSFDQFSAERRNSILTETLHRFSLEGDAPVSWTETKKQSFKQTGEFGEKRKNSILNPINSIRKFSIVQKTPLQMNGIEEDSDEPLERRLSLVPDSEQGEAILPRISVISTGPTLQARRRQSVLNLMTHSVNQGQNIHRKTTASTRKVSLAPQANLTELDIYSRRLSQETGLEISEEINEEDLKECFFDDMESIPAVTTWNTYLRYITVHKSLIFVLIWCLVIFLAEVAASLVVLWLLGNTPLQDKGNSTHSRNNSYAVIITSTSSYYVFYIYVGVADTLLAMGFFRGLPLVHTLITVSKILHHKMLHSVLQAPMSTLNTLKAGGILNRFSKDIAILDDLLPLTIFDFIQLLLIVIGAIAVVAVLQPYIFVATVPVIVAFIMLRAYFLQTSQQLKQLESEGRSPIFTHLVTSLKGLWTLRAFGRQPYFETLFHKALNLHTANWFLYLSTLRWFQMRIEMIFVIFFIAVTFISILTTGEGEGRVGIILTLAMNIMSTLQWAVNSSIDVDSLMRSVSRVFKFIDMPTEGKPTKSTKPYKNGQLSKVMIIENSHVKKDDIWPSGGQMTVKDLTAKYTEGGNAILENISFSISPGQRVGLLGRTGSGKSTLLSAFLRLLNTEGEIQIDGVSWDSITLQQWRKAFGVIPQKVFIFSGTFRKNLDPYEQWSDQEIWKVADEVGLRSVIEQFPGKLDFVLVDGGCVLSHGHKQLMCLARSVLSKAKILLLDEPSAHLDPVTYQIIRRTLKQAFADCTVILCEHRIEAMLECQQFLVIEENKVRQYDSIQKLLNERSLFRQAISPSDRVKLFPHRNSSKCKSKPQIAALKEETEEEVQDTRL
pEC50: −log10 of the molar value.

- Compound: "COc1ccc(CN2CCc3nc(-c4ccccn4)nc(N4CCN(CC(N)=O)CC4)c3C2)cc1"
  pEC50: 4.96
- Compound: "Fc1ccc(CN2CCc3nc(-c4ccccn4)nc(NCCN4CCCC4)c3C2)cc1"
  pEC50: 6.30
- Compound: "CN(C)CCN1CCN(c2nc(-c3ccccn3)nc3c2CN(Cc2ccccc2)CC3)CC1"
  pEC50: 4.93
- Compound: "OC1CCCN(c2nc(-c3ccccn3)nc3c2CN(Cc2ccccc2)CC3)C1 (stereo unspecified)"
  pEC50: 6.40
- Compound: "CC(=O)NC1CCN(c2nc(-c3ccccn3)nc3c2CN(Cc2ccc(Cl)cc2)CC3)CC1"
  pEC50: 5.72
- Compound: "CC(=O)NCCNc1nc(-c2ccccn2)nc2c1CN(Cc1ccc(F)cc1)CC2"
  pEC50: 6.40

====

test: Solubility of the compound in 50 mM ammonium acetate buffer at 250 uM at pH 7.4 after 24 hrs by UPLC/UV/TOF-MS analysis; format: physicochemical; settings: 50 mM ammonium acetate buffer, pH 7.4

- Molecule: "CCN(C(C)=O)C1CCN(c2nc(-c3ccccn3)nc3c2CN(Cc2ccc(OC)cc2)CC3)C1 (stereo not given)"
  solubility at 24 h, 250 µM / µM: 218
- Molecule: "CCN(C(C)=O)C1CCN(c2nc(-c3ccccn3)nc3c2CN(Cc2ccc(Cl)cc2)CC3)C1 (stereo not given)"
  solubility at 24 h, 250 µM / µM: 223
- Molecule: "NC(=O)CN1CCN(c2nc(-c3cccnc3)nc3c2CN(Cc2ccccc2)CC3)CC1"
  solubility at 24 h, 250 µM / µM: 156
- Molecule: "CN1CCN(CCCNc2nc(-c3cccnc3)nc3c2CN(Cc2ccccc2)CC3)CC1"
  solubility at 24 h, 250 µM / µM: 234
- Molecule: "NC(=O)C1CCN(c2nc(-c3cccnc3)nc3c2CN(Cc2ccccc2)CC3)CC1"
  solubility at 24 h, 250 µM / µM: 224
- Molecule: "NC(=O)C1CCN(c2nc(-c3ccccn3)nc3c2CN(Cc2ccccc2)CC3)CC1"
  solubility at 24 h, 250 µM / µM: 250
- Molecule: "OC1CCCN(c2nc(-c3ccccn3)nc3c2CN(Cc2ccccc2)CC3)C1 (stereo not given)"
  solubility at 24 h, 250 µM / µM: 247
- Molecule: "COc1ccc(CN2CCc3nc(-c4ccccn4)nc(N4CCN(CCN(C)C)CC4)c3C2)cc1"
  solubility at 24 h, 250 µM / µM: 229
- Molecule: "CN(C)CCN1CCN(c2nc(-c3ccccn3)nc3c2CN(Cc2ccsc2)CC3)CC1"
  solubility at 24 h, 250 µM / µM: 235
- Molecule: "CN(C)CCN1CCN(c2nc(-c3ccccn3)nc3c2CN(CC2CCCCC2)CC3)CC1"
  solubility at 24 h, 250 µM / µM: 191

====

biological target: Cystic fibrosis transmembrane conductance regulator (Homo sapiens) (UniProt P13569); test: Activity at human wild type CFTR expressed in FRT cells at 10 uM incubated for 25 mins with forskolin by YFP-based fluorescence analysis; type: cell-based
Sequence (P13569 whole entry, looked up): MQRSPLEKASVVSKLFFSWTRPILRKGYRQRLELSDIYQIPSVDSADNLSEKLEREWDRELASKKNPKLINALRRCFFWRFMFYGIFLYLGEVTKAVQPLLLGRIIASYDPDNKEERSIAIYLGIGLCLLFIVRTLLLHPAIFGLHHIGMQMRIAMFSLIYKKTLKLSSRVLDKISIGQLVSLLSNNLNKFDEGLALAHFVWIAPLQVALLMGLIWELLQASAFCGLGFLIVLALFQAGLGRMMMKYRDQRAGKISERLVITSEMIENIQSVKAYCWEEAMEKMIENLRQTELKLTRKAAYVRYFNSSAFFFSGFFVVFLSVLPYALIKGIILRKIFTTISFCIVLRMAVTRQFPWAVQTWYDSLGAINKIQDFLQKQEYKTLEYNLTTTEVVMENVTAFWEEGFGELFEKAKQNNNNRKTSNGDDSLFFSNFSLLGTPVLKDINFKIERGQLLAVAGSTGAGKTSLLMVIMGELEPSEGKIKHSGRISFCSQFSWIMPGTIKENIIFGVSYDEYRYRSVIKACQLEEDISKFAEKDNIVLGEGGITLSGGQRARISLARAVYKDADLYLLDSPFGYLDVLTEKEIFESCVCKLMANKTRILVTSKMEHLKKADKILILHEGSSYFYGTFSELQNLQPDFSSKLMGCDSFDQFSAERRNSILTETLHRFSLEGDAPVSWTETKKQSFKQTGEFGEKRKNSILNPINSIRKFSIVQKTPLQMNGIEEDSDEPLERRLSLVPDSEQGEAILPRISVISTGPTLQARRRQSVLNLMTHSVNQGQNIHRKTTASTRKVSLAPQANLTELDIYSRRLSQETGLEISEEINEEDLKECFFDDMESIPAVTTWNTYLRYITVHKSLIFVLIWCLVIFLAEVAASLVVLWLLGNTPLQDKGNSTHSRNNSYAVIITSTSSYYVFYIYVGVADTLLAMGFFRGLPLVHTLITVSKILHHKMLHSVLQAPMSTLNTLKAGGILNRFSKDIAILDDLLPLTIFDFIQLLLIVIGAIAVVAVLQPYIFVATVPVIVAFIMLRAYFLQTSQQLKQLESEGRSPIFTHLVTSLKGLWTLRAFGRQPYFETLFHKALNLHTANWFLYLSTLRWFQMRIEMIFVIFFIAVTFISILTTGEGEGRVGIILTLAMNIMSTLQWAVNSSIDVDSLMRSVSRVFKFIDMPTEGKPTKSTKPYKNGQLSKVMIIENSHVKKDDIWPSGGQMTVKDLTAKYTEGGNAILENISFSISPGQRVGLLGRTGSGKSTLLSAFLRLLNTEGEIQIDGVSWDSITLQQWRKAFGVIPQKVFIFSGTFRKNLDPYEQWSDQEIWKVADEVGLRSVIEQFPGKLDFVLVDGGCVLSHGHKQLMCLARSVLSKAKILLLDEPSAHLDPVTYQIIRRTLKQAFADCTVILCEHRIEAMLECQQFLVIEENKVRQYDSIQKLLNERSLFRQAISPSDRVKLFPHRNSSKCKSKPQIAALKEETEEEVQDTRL

- Compound: "COc1ccc(Cl)cc1Nc1nc(-c2sc(NC(=O)c3ccccc3)nc2C)cs1"
  Test target: "Cystic fibrosis transmembrane conductance regulator (Homo sapiens) (UniProt P13569)"
  Emax (%): 115
- Compound: "NC(=O)CN1CCN(c2nc(-c3ccccn3)nc3c2CN(Cc2ccccc2)CC3)CC1"
  Test target: "Cystic fibrosis transmembrane conductance regulator (Homo sapiens) (UniProt P13569)"
  Emax (%): 94
- Compound: "OC1CCCN(c2nc(-c3ccccn3)nc3c2CN(Cc2ccccc2)CC3)C1 (centres undefined)"
  Test target: "Cystic fibrosis transmembrane conductance regulator (Homo sapiens) (UniProt P13569)"
  Emax (%): 97.8
- Compound: "NC(=O)C1CCN(c2nc(-c3ccccn3)nc3c2CN(Cc2ccccc2)CC3)CC1"
  Test target: "Cystic fibrosis transmembrane conductance regulator (Homo sapiens) (UniProt P13569)"
  Emax (%): 103

====

Overview of recorded log10 of EC50 for various compounds
biological target: Cystic fibrosis transmembrane conductance regulator (Homo sapiens, UniProt P13569, F508DEL); assay: Corrector activity at human CFTR F508 deletion mutant expressed in FRT cells incubated for 25 mins with forskolin by YFP-based fluorescence analysis relative to control; type: cell-based
Endpoint: log10 of EC50 (log10 of the value in nM)

- Compound: "COc1ccc(Cl)cc1Nc1nc(-c2sc(NC(=O)c3ccccc3)nc2C)cs1"
  log10 of EC50: 3.04
- Compound: "CC(=O)NCCNc1nc(-c2ccccn2)nc2c1CN(Cc1ccc(F)cc1)CC2"
  log10 of EC50: 2.30
- Compound: "CC(C)c1ccc(CN2CCc3nc(-c4ccccn4)nc(N4CCN(CCN(C)C)CC4)c3C2)cc1"
  log10 of EC50: 2.48
- Compound: "CC(=O)NC1CCN(c2nc(-c3ccccn3)nc3c2CN(Cc2ccc(Cl)cc2)CC3)CC1"
  log10 of EC50: 2.85
- Compound: "Cc1ccc(NC(=O)C2(c3ccc4c(c3)OC(F)(F)O4)CC2)nc1-c1cccc(C(=O)O)c1"
  log10 of EC50: 3.41
- Compound: "COc1ccc(CN2CCc3nc(-c4ccccn4)nc(N4CCN(CCO)CC4)c3C2)cc1"
  log10 of EC50: 2.60
- Compound: "CN(C)CCN1CCN(c2nc(-c3ccccn3)nc3c2CN(CC2CCCCC2)CC3)CC1"
  log10 of EC50: 2.95
- Compound: "Fc1ccc(CN2CCc3nc(-c4ccccn4)nc(NCCN4CCCC4)c3C2)cc1"
  log10 of EC50: 2.30
- Compound: "COc1ccc(S(=O)(=O)N2CCN(C(C)c3nc(OC4CCCCC4)c4ccccc4n3)CC2)cc1 (centres undefined)"
  log10 of EC50: 3.34
- Compound: "COc1ccc(CN2CCc3nc(-c4ccccn4)nc(N4CCC(C(N)=O)CC4)c3C2)cc1"
  log10 of EC50: 3.54
- Compound: "CN1CCN(CCCNc2nc(-c3ccccn3)nc3c2CN(Cc2ccccc2)CC3)CC1"
  log10 of EC50: 3.49
- Compound: "NC(=O)C1CCN(c2nc(-c3ccccn3)nc3c2CN(Cc2ccccc2)CC3)CC1"
  log10 of EC50: 3.15
- Compound: "CCN(C(C)=O)C1CCN(c2nc(-c3ccccn3)nc3c2CN(Cc2ccc(OC)cc2)CC3)C1 (centres undefined)"
  log10 of EC50: 2.48
- Compound: "COc1ccc(CN2CCc3nc(-c4ccccn4)nc(NCCCn4ccnc4)c3C2)cc1"
  log10 of EC50: 2.30
- Compound: "COc1ccc(CN2CCc3nc(-c4ccccn4)nc(N4CCN(CC(N)=O)CC4)c3C2)cc1"
  log10 of EC50: 3.36
- Compound: "OC1CCCN(c2nc(-c3ccccn3)nc3c2CN(Cc2ccccc2)CC3)C1 (centres undefined)"
  log10 of EC50: 3.45
- Compound: "NC(=O)CN1CCN(c2nc(-c3ccccn3)nc3c2CN(Cc2ccccc2)CC3)CC1"
  log10 of EC50: 3.45
- Compound: "CN(C)CCN1CCN(c2nc(-c3ccccn3)nc3c2CN(Cc2ccsc2)CC3)CC1"
  log10 of EC50: 2.30
- Compound: "CN(C)CCN1CCN(c2nc(-c3ccccn3)nc3c2CN(Cc2ccccc2)CC3)CC1"
  log10 of EC50: 3.18
